TARGET OR TEST SYSTEM: agTRPA1(A) (Anopheles gambiae)
Sequence (B3G3I7 entry or part of it): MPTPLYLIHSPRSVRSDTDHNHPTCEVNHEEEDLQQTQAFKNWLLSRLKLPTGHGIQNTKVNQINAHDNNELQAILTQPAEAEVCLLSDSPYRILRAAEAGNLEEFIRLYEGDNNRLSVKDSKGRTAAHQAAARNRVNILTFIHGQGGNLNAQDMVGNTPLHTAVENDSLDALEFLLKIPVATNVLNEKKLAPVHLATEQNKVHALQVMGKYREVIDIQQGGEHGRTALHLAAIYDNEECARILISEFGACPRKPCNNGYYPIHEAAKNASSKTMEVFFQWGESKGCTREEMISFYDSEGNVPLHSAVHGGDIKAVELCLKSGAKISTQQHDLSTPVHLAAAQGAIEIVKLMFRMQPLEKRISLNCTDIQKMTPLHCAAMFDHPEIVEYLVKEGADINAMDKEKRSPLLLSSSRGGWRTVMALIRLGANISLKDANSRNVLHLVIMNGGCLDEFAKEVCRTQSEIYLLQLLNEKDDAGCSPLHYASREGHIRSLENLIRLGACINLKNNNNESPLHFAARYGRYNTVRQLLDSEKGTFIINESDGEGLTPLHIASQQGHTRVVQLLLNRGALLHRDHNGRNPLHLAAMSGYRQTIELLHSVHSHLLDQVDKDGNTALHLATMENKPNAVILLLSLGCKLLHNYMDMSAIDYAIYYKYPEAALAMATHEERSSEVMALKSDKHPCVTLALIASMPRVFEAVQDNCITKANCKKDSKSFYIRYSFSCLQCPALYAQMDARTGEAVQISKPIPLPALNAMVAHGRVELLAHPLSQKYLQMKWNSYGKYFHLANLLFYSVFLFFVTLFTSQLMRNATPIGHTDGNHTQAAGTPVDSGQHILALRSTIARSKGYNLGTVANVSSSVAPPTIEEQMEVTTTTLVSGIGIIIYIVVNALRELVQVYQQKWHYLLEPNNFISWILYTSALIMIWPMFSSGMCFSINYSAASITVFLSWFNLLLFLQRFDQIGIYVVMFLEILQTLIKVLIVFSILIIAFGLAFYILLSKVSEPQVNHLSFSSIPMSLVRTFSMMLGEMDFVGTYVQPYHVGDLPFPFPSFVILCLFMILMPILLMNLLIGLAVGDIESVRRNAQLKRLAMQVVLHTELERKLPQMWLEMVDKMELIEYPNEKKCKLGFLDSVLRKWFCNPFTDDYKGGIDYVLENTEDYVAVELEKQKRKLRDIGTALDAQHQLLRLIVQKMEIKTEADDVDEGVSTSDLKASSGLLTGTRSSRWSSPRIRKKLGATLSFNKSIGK
EXPERIMENT SUMMARY: Two-electrode voltage clamp of Xenopus oocytes expressing agTRPA1(A)
pEC50: −log10 of the molar value.
PROPERTY MEASURED: pEC50

{"COMPOUND": "OO [H2O2, hydrogen peroxide]", "PROPERTY MEASURED": "pEC50", "MEASURED": 5.77}

// data source = paper PMC5068967
